system: Apc [+/−] 1638NCOL cells; assay: Cytostatic growth arrest (cell population doubling); assay type: cell-based, mouse; details: 1 μM
Answer each item with its documented % Change in no. of population doublings versus EtOH control.
One number for each entry, in %.

Solved entries (count: 3):
CC/C(=C(\c1ccccc1)c1ccc(OCCN(C)C)cc1)c1ccccc1 | −23.2
CC1=C(CC(=O)O)c2cc(F)ccc2/C1=C\c1ccc([S+](C)[O-])cc1 (centres unmarked) | −23.2
NCCCNCCSP(=O)(O)O | −17.2

Please indicate % Change in no. of population doublings versus EtOH control recorded for CC1=C(/C=C/C(C)=C\C=C\C(C)=C\C(=O)O)C(C)(C)CCC1 [Agent 9cisRA, 9cis retinoic acid]
−32.3
